# TGT: urease (Canavalia ensiformis, UniProt P07374)
# Sequence (P07374 whole entry, looked up): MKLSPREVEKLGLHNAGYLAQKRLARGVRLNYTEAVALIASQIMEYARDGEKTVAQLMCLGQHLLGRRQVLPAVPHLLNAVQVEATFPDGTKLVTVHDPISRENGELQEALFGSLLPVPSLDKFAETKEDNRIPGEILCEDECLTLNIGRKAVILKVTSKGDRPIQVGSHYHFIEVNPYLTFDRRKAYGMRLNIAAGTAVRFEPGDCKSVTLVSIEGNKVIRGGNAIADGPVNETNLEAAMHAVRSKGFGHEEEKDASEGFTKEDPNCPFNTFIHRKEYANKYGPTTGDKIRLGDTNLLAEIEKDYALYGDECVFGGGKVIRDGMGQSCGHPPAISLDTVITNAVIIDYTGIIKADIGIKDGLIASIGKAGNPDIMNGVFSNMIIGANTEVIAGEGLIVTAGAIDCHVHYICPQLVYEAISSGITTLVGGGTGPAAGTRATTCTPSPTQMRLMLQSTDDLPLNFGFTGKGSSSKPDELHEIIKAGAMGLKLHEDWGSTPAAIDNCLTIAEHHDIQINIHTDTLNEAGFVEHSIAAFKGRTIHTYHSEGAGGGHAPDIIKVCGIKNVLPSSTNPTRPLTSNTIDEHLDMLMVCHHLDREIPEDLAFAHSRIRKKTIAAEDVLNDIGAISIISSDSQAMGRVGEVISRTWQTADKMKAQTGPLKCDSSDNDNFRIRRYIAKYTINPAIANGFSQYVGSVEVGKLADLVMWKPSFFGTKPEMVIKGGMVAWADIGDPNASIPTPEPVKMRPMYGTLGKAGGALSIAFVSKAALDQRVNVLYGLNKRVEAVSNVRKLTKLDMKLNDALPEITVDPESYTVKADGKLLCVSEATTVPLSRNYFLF
# METHOD_NOTES: biochemical
# Type: biochemical, jack bean
QUANTITY_MEASURED: pIC50
pIC50 field: float, defined as -log10 of concentration (mol/L).

Field pIC50 (entry "COc1ccc(-n2c(SCC(=O)Nc3ncc([N+](=O)[O-])s3)nc3ccccc3c2=O)cc1" ) reads 5.56

Field pIC50 (entry "O=C(CSc1nc2ccccc2c(=O)n1Cc1cccnc1)Nc1ncc([N+](=O)[O-])s1" ) reads 5.60

Field pIC50 (entry "O=C(CSc1nc2ccccc2c(=O)n1-c1ccccc1)Nc1ncc([N+](=O)[O-])s1" ) reads 5.33

Field pIC50 (entry "O=C(CSc1nc2ccccc2c(=O)n1CCc1ccccc1)Nc1ncc([N+](=O)[O-])s1" ) reads 5.65

Field pIC50 (entry "O=C(CSc1nc2ccccc2c(=O)n1Cc1ccccc1)Nc1ncc([N+](=O)[O-])s1" ) reads 5.42

Field pIC50 (entry "Cc1ccc(Cn2c(SCC(=O)Nc3ncc([N+](=O)[O-])s3)nc3ccccc3c2=O)cc1" ) reads 5.46

Field pIC50 (entry "C=CCn1c(SCC(=O)Nc2ncc([N+](=O)[O-])s2)nc2ccccc2c1=O" ) reads 5.26

Field pIC50 (entry "CC(C)Cn1c(SCC(=O)Nc2ncc([N+](=O)[O-])s2)nc2ccccc2c1=O" ) reads 5.07

====

# TGT: urease (Canavalia ensiformis, UniProt P07374)
# METHOD_NOTES: biochemical
# Type: biochemical, jack bean
# CONDITION_PARAMETERS: mean ± standard error of three independent experiments; read-out: IC50 (urease inhibitory activity)
QUANTITY_MEASURED: IC50

Field IC50 (entry NC(N)=S [Thiourea, reference compound] ) reads 22.5 µM

====

We begin with a simple list: items and their reported IC50.
# TGT: urease (Canavalia ensiformis)
# METHOD_NOTES: biochemical
# Format: biochemical, jack bean
Reply with just the number (in nM).

smiles_entry=O=C(CSc1nc2ccccc2c(=O)n1-c1ccc(Br)cc1)Nc1ncc([N+](=O)[O-])s1 data_value=2220
smiles_entry=O=C(CSc1nc2ccccc2c(=O)n1-c1ccc(Cl)cc1)Nc1ncc([N+](=O)[O-])s1 data_value=2340
smiles_entry=CCCn1c(SCC(=O)Nc2ncc([N+](=O)[O-])s2)nc2ccccc2c1=O data_value=4260

Field IC50 (entry "CC(C)n1c(SCC(=O)Nc2ncc([N+](=O)[O-])s2)nc2ccccc2c1=O" ) reads 6040

Field IC50 (entry "O=C(CSc1nc2ccccc2c(=O)n1C1CCCC1)Nc1ncc([N+](=O)[O-])s1" ) reads 2960

Field IC50 (entry "CCCCn1c(SCC(=O)Nc2ncc([N+](=O)[O-])s2)nc2ccccc2c1=O" ) reads 3020
